# Measurement Target: Cytochrome P450 2C9 (Homo sapiens) (UniProt P11712)
# Sequence (P11712 whole entry, looked up): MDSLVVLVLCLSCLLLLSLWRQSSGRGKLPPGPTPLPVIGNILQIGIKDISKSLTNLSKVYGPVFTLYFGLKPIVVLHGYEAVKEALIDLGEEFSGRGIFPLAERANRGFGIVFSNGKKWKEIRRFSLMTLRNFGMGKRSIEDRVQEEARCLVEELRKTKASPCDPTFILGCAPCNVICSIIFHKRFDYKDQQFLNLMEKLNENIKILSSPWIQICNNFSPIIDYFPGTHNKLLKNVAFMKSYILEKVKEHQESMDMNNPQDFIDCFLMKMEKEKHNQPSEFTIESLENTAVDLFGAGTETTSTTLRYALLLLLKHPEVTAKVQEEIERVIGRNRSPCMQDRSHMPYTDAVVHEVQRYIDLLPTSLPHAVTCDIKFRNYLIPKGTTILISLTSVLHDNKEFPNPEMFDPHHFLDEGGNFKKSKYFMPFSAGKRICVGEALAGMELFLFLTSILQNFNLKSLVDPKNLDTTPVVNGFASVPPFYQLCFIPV
# Assay Details: Cytochrome panel assay with activity outcomes
# Assay Context: recombinant CYP, pro-luciferin dealkylation, luminescence, p450-cyp2c9; series mostly up to 57.1 µM
# Procedure: The P450 gene superfamily is involved in the metabolism and clearance of xenobiotics. This assay used various human CYP P450 isozymes to measure the dealkylation of various pro-luciferin substrates to luciferin. The luciferin is then measured by luminescence after the addition of a luciferase detection reagent. […] Inhibitors and some substrates limit the production of luciferin, and decrease measured luminescence. […] 8, Detection, 1 sec, ViewLux luminescent read […]
The campaign covered roughly 16,000 compounds. About 4,000 (25%) were called active. Inconclusive results (about 26%) are left out. Calls follow the shape of the dose curve; as a rule, active = well fitted curve in the direction sought with a large enough effect; inconclusive = small, poorly fitted or top-dose-only effect, or effect the other way; inactive = no such curve, though single readings can be large or run the other way. A selection follows.
// one of active, inactive, no free text

INSERT INTO results (compound, category) VALUES
  ('CSC1=N/C(=C\c2ccc(Br)o2)C(=O)S1', 'active'),
  ('O=C(O)C1C2C=CC3(CN(Cc4ccccn4)C(=O)C13)O2 (stereo unspecified)', 'inactive'),
  ('Cc1cccc(NC(=O)C2(c3ccccc3)CC2(Cl)Cl)c1 (stereo unspecified)', 'active'),
  ('Cc1cccc(NC(=O)C2(c3ccc([N+](=O)[O-])cc3)CCCC2)c1', 'active'),
  ('COC(=O)CSc1ccc2nnc(-c3ccc(F)cc3)n2n1', 'active');

Read the next record carefully.
Please indicate how the test categorized "CSC1=N/C(=C\c2ccc3c(c2)OCO3)C(=O)S1" . inactive
